The following binders are shown together with reported Kd values.
Experimental System: T1, DR3-8i (human)
T1 construct: also called purified monomeric DR3-8i antigen protein
T1 chain: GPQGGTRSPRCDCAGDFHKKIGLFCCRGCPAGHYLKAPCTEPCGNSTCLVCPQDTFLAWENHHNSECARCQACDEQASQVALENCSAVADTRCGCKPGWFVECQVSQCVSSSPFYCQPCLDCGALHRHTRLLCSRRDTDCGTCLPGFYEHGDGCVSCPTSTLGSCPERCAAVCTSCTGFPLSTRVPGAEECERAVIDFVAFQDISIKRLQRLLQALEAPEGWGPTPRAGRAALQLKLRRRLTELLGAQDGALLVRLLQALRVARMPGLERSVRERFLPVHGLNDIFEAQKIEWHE
Protocol Text: BLI, IgG captured on protein A, DR3-8i in solution; Experiment 2
Field format: number, assumed nM, no unit text.

# annotated cases, reported Kd shown
INSERT INTO measurements (binder, u, data_value) VALUES
  ('VHg10/VLg12 (antibody, human IgG1, V domains shown, human IgG1) VH: EVQLVESGGGLVQPGGSLRLSCAASGFTFSSYAMSWVRQAPGKGLEWVSTISDGDSYSYFPDSVKDRFTISRDNSKNTLYLQMNSLRAEDTAVYYCARDRIYGSVQYYAMDYWGQGTLVTVSS VL: EIVLTQSPATLSLSPGERATLSCRASESVEFSGTSLMQWYQQKPGQAPRLLIYAASNVESGIPARFSGSGSGTDFTLTISSLEPEDFAVYYCQQSRKLPYTFGQGTKLEIK', 'nM', 0.188),
  ('VHg10/VLg6 (antibody, human IgG1, V domains shown, human IgG1) VH: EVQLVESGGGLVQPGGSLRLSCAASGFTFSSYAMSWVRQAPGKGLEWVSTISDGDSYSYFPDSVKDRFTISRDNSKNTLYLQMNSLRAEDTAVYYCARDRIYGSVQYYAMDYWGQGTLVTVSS VL: DVVMTQSPPSLPVTPGEPASISCRASESVEFSGTSLMQWYLQKPGQSPQVLIYAASNVESGVPDRFSGSGSGTDFTLKISRVEAEDVGVYYCQQSRKLPYTFGQGTRLEIK', 'nM', 0.234);

# binder VHg10/VLg11 (antibody, human IgG1, V domains shown, human IgG1) VH: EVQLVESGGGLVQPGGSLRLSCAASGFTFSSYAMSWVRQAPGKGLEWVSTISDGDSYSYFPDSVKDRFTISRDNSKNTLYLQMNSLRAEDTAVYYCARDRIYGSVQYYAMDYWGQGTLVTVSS VL: DIVMTQSPDSLAVSLGERATINCRASESVEFSGTSLMQWYQQKPGQPPKLLIYAASNVESGVPDRFSGSGSGTDFTLTISSLQAEDVAVYYCQQSRKLPYTFGQGTKLEIK ; its Kd = 0.244

// Kd value for VHg2/VLg2 (antibody, human IgG1, V domains shown, human IgG1) VH: QMQLVQSGGGLVKPGGSLRLSCAASGFTFSSYAMSWIRQAPGKGLEWVSTISDGDSYSYFPDSVKDRFTISRDNAKNSLYLQMNSLRAEDTAVYYCTRDRIYGSVQYYAMDYWGRGTLVTVSS VL: DIQLTQSPSSLSASVGDRVTITCRASESVEFSGTSLMQWYQQKAGLAPKLLIYAASNVESGVPSRFSGSGSGTDFTLTISSLQPEDFGTYYCQQSRKLPYTFGQGTRLEIK : 0.21
